- assayDetails: qHTS Assay for Lipid Storage Modulators (AID 1519)
- conditionDetails: Drosophila S3 cells, BODIPY lipid droplet/cell ratio, laser cytometry; measured here: lipid channel max response; cells loaded with oleic acid
Results filed as inconclusive are left out.
API: label(entry) gives 1 if the entry's max response is strictly smaller than 10%; on equality or larger values it gives 0.

In [3]: df
Out[3]:
                                   compound  classname
0                   Cc1cccc(C)c1OC[C@H](C)N          1
1  O=C(Nc1cccc(F)c1)N1CC[C@@]2(CCCN(C(=O)c3cc(C(F)(F)F)cc(C(F)(F)F)c3)C2)C1          1
2  Cn1cccc1C(=O)N1CCC[C@@]2(CCN(C(=O)Nc3cccc(F)c3)C2)C1          0
3     Cc1noc(C)c1-c1nc(NC2CCNCC2)c2ccccc2n1          0
4  CC1(C)C=CC(=O)[C@]2(C)C1CC(=O)[C@]1(C)C2CC[C@@]2(C)C(c3ccoc3)OC(=O)C3OC321 (some centres undefined)          1

Dear colleague, could you confirm whether max response of Cc1cc(OC(=O)c2c(C)cc(O)cc2O)cc(O)c1C(=O)O falls below 10%? Thanks.
0

Threshold test, max response < 10%: COCC(=O)N1CCC2(CCN(Cc3ccncc3)CC2)CC1
0

Please determine if COc1ccc(CNc2ccnc(-c3ccccc3CN(C)C)n2)c(OC)c1 is below 10% in terms of max response.
0

Quick check: max response of N#Cc1cccc(NC(=O)N2CCC3(CC2)CCN(C(=O)c2cccc(F)c2)CC3)c1 under 10%?
0

Determine whether this compound shows max response lower than 10% (ties excluded): Cn1cccc1C(=O)N1CCC2(CCCN(c3ccncc3)C2)CC1
0
